test method notes: protein stability index of a GFP-peptide fusion (GPS, HEK-293T) (PSI 1-6); higher = more stable;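 also: 24-mer peptide tiles fused after GFP, lentivirally expressed, FACS-sorted into six equal bins by GFP/DsRed ratio, decoded by Illumina sequencing, PSI is the read-weighted mean bin number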
condition details: treatment: MLN4924 1 uM, 8 h; c terminus: a fixed tail appended
Answer not met if protein stability index is under 3, and met if it is 3 or more.

[[record]]
record_sequence = "ARGGAVSARYVLPDEAARARLLQE [DUSP5]"
qualitative_label = "met"

[[record]]
record_sequence = "LLTFQQITTVSKAKGASLFTCDLQ [VPS39]"
qualitative_label = "not met"

[[record]]
record_sequence = "EADGSTNNGIFQINSRRWCSNLTP [SPACA3]"
qualitative_label = "met"

[[record]]
record_sequence = "TCQRVNGIKVQNGGIVTDTPASNH [SLC19A2]"
qualitative_label = "met"

[[record]]
record_sequence = "LQIELGKCKAEHDQLLLNYAKKES [LMNB1]"
qualitative_label = "met"

[[record]]
record_sequence = "ILRCWKCRKCIASSGCFMEYLENQ [RNF180]"
qualitative_label = "not met"

[[record]]
record_sequence = "DEKDRIITAFYNEARARARANRGI [DNAJC4]"
qualitative_label = "met"

[[record]]
record_sequence = "SSSKWQRRDYLLLVMEGTDDGRLL [APMAP]"
qualitative_label = "not met"

[[record]]
record_sequence = "LFQILSERQDMYQCLVEGCTEKFK [ZNF511]"
qualitative_label = "not met"

[[record]]
record_sequence = "SKSGYLRYSCESRIRSYLREVSSY [DFFB]"
qualitative_label = "not met"

[[record]]
record_sequence = "GLRRLGLHRTEGELQKIVQAGDKD [SLC25A25]"
qualitative_label = "met"

[[record]]
record_sequence = "KNMDQVAPVANSYRGTLKRQPAFD [ETS2]"
qualitative_label = "met"

[[record]]
record_sequence = "HERGLKLHQTIYNQACKLLSDDYE [INTS4]"
qualitative_label = "met"

[[record]]
record_sequence = "CMFCLYSFMPLVIKVTSATSVNLG [SLC35F2]"
qualitative_label = "not met"

[[record]]
record_sequence = "DRVQVERDGLAEDLAALKQRLEEE [PRPH]"
qualitative_label = "met"

[[record]]
record_sequence = "VTSIPSVSDSLTWREFHYIQSKLG [STEAP1]"
qualitative_label = "not met"

[[record]]
record_sequence = "LGKLIPRHQSIFKSNGFFHGISIP [CDKL4]"
qualitative_label = "not met"

[[record]]
record_sequence = "QCRDLVDEAKKFHLRPELRSQMQG [KLHL12]"
qualitative_label = "met"

[[record]]
record_sequence = "MAEPSAATQSHSISSSSFGAEPSA [RTN3]"
qualitative_label = "met"

[[record]]
record_sequence = "QPPSCQGEAAGSSLIGHLQTLSPD [DUSP5]"
qualitative_label = "met"

[[record]]
record_sequence = "ESYTKMCDPGMTAFEPEALGNLVE [CAMK2A]"
qualitative_label = "met"

[[record]]
record_sequence = "AQAHRIHIDPEIQDGSPTTSRRPS [PDLIM4]"
qualitative_label = "met"

[[record]]
record_sequence = "MIVDLLSEKKTISFQGCMAQLFMD [OR4A15]"
qualitative_label = "not met"

[[record]]
record_sequence = "ASLENSLEETKGRYCMQLSQIQGL [KRT16]"
qualitative_label = "met"


The reported numbers originate from the supplement of paper PMC10567573.
